Biological target: RET V804L (Homo sapiens, UniProt P07949, V804L)
Sequence (P07949 29-1114 V804L): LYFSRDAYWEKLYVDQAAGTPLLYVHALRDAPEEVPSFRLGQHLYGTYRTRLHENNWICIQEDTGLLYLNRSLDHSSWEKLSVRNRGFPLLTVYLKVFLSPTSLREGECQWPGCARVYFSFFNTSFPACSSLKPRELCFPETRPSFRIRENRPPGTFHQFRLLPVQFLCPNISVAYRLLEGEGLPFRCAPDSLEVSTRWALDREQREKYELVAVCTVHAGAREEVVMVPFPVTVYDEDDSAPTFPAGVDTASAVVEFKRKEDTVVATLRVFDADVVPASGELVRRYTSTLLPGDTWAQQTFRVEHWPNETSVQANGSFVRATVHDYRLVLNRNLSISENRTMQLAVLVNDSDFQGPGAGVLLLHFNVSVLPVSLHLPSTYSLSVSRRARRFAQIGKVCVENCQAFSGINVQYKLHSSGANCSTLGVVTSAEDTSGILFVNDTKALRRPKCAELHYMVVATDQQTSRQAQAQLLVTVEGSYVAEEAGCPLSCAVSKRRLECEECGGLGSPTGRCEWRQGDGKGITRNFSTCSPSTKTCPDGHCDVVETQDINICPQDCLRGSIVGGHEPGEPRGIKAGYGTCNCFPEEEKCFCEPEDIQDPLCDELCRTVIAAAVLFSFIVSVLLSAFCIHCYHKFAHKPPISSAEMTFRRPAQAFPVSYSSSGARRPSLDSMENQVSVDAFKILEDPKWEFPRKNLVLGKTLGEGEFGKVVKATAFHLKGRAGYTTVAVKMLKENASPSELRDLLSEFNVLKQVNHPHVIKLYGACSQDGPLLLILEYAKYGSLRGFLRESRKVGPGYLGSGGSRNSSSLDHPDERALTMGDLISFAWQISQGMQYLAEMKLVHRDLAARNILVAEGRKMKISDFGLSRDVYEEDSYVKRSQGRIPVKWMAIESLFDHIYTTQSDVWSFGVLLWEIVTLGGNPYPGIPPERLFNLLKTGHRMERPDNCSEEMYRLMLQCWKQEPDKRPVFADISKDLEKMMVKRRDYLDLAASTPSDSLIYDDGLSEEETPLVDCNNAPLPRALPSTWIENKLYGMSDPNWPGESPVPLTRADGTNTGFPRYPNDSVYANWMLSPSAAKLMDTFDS
Assay: RET V804L Gatekeeper Mutant Assay at KM (Caliper electrophoretic mobility shift)
Details: 10 μM ATP, 25° C., 120 minutes
pIC50: −log10 of the molar value.
For each of the molecules below, state its pIC50.

// known answers, use as guide
MOLECULE	pIC50
CCOc1ccc(CNC(=O)C2CC[C@](O)(c3cc(C)cc(Nc4cc(C5CC5)[nH]n4)n3)C2)cc1 (stereo partly shown)	> 8.00
Cc1cc(Nc2cc(C)[nH]n2)nc([C@]2(O)CC[C@H](C(=O)NCc3ccc(-n4cccn4)nc3)C2)c1	7.00 to 8.00
Cc1cc([C@@H]2CC[C@](C)(C(=O)N[C@@H](C)c3ccc(-n4cc(F)cn4)nc3)C2)nc(Nc2cc(C)[nH]n2)n1 (single isomer, unassigned)	> 8.00

Hello, I would appreciate it if you could give pIC50 for each entry below.
1. Cc1cc(Nc2cc(C)[nH]n2)nc([C@H]2CC[C@@](C)(C(=O)N[C@@H](C)c3ccc(-n4cc(F)cn4)nc3)C2)n1
2. Cc1cc(Nc2cc(C)[nH]n2)nc([C@@]2(O)CC[C@H](C(=O)N[C@@H](C)c3cnc(-n4cc(F)cn4)cn3)C2)c1
3. Cc1cc(Nc2cc(C)[nH]n2)nc([C@@H]2CC[C@H](C(=O)N[C@@H](C)c3ccc(-n4cc(F)cn4)nc3)C2)n1 (single isomer, unassigned)
4. Cc1cc(Nc2cc(C)[nH]n2)nc([C@@]2(O)CC[C@](C)(C(=O)N[C@@H](C)c3ccc(-n4cc(F)cn4)nc3)C2)c1
5. Cc1cc(Nc2cc(C)[nH]n2)nc([C@H]2CC[C@@H](C(=O)N[C@@H](C)c3ccc(-n4cc(F)cn4)nc3)C2)n1 (single isomer, unassigned)
6. Cc1cc([C@@H]2CC[C@@](C)(C(=O)N[C@@H](C)c3ccc(-n4cc(F)cn4)nc3)C2)nc(Nc2cc(C)[nH]n2)n1 (single isomer, unassigned)
7. Cc1cc(Nc2cc(C)[nH]n2)nc(C2(O)CCC(C(=O)NCc3ccc(-n4nc(C)cc4C)nc3)C2)c1 (mixture of isomers)

Solution:
1: 7.00 to 8.00; 2: > 8.00; 3: 7.00 to 8.00; 4: > 8.00; 5: 7.00 to 8.00; 6: > 8.00; 7: > 8.00
